Just for reference, patent US20240124417A1 is where these values come from.

Target: PD-1/PD-L1 (Homo sapiens, UniProt Q9NZQ7)
Construct: TVMV protease site linker (C)
Sequence (Q9NZQ7 18-239): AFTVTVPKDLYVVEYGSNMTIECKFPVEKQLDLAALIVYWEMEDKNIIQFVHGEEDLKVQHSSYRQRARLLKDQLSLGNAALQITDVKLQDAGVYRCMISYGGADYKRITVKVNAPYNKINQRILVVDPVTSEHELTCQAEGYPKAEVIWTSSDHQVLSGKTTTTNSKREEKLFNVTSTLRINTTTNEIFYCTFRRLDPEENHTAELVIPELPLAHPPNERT
Assay: PD-1/PD-L1 Homogenous Time-Resolved Fluorescence (HTRF) binding assay
Details: PD-L1-His 10 nM, PD-1-Ig 20 nM
Description: The ability of the compounds of the invention to bind to PD-L1 was investigated using a PD-1/PD-L1 Homogenous Time-Resolved Fluorescence (HTRF) binding assay. Homogenous Time-Resolved Fluorescence (HTRF) binding assay. The interaction of PD-1 and PD-L1 can be assessed using soluble, purified preparations of the extracellular domains of the two proteins. […]
Collected pIC50 values appear next to each entry.
Field pIC50 (float): negative decimal logarithm of the concentration in molar.

Examples from the recorded data:
compound: Cc1c(COc2cc(OCc3cncc(C#N)c3)c(CN(C)CC(C)c3nnn[nH]3)cc2Cl)cccc1-c1cccc(OCCCN2CC[C@@H](O)C2)c1C (some centres unmarked) [Example 1006]
pIC50: 8.57
--
compound: Cc1c(COc2cc(OCc3cncc(C#N)c3)c(CNCc3cc[nH]n3)cc2Cl)cccc1-c1cccc(OCCCN2CC[C@@H](O)C2)c1C [Example 2001]
pIC50: 9.70
--
compound: CC(=O)NC1CCN(CCCOc2cccc(-c3cccc(COc4cc(OCc5cncc(C#N)c5)c(CNc5nnn[nH]5)cc4Cl)c3C)c2Cl)CC1 [Example 1056]
pIC50: 8.74
--
compound: Cc1c(COc2cc(OCc3cncc(C#N)c3)c(CN3CCc4c(cnn4-c4ccccc4)C3)cc2Cl)cccc1-c1cccc(OCCCN2CC[C@@H](O)C2)c1C [Example 2567]
pIC50: 7.64
--
compound: Cc1c(COc2cc(OCc3cncc(C#N)c3)c(CN(C)Cc3nnn[nH]3)cc2Cl)cccc1-c1cccc(OCCCN2CC[C@@H](O)C2)c1C [Example 1016]
pIC50: 8.72
--
compound: Cc1nc(CN(C)Cc2cc(Cl)c(OCc3cccc(-c4cccc(OCCCN5CC[C@@H](O)C5)c4C)c3C)cc2OCc2cncc(C#N)c2)no1 [Example 2545]
pIC50: 7.92

Problem: Record Cc1noc(C)c1CNCc1cc(Cl)c(OCc2cccc(-c3cccc(OCC4CCCN(C)C4)c3Cl)c2C)cc1OCc1cncc(C#N)c1 (centres unmarked) [Example 2597] : what is its pIC50 with PD-1/PD-L1 (Homo sapiens, UniProt Q9NZQ7)?
Solution: 8.54

Problem: Record Cc1c(COc2cc(OCc3cnccn3)c(CNCc3cccnn3)cc2Cl)cccc1-c1cccc(OCC2CCCN(C)C2)c1Cl (centres unmarked) [Example 2058] : what is its pIC50 with PD-1/PD-L1 (Homo sapiens, UniProt Q9NZQ7)?
Solution: 8.41

Problem: Record Cc1c(COc2cc(OCc3cncc(C#N)c3)c(CNCc3csc(N)n3)cc2Cl)cccc1-c1cccc(OCC2CCCN(C)C2)c1Cl (centres unmarked) [Example 2586] : what is its pIC50 with PD-1/PD-L1 (Homo sapiens, UniProt Q9NZQ7)?
Solution: 9.15

Problem: Record Cc1c(COc2cc(OCc3cncc(C#N)c3)c(CN(C)Cc3cccnc3)cc2Cl)cccc1-c1cccc(OCCCN2CC[C@@H](O)C2)c1C [Example 2501] : what is its pIC50 with PD-1/PD-L1 (Homo sapiens, UniProt Q9NZQ7)?
Solution: 8.64

Problem: Record Cc1c(COc2cc(OCc3cncc(C#N)c3)c(CN3CCCC3c3ccn[nH]3)cc2Cl)cccc1-c1cccc(OCC2CCCN(C)C2)c1Cl (centres unmarked) [Example 1026] : what is its pIC50 with PD-1/PD-L1 (Homo sapiens, UniProt Q9NZQ7)?
Solution: 8.82
